Target: T1, human TIGIT ECD-mFc (fusion protein of extracellular domain of human TIGIT and mouse IgG2a Fc fragment) (human)
T1 chain: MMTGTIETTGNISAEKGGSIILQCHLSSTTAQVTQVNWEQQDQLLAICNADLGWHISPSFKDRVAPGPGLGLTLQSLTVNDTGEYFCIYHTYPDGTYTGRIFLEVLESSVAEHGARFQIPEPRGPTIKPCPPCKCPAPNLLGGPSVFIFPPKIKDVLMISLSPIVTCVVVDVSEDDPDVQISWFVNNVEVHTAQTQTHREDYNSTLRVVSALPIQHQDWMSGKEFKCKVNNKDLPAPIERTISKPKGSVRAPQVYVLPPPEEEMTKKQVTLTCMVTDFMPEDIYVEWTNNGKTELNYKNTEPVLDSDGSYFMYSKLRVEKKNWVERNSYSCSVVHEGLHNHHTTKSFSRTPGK
Assay: FACS, competition: hTIGIT ECD-mFc to CHO-K1 CD155
Quantity: pIC50
Give bare numbers, as −log10 of the molar value.

Look over these answered cases.
Binder | pIC50
TIGIT-CHI-005 (antibody, V domains shown, human-mouse chimeric antibody) VH: QVQLQQSGAELVRPGTSVKVSCKASGYAFTNYLIEWVKQRPGQGLEWIGVINPGSGGTNYKEKFKGKATLTADKSSSTAYMQLSSLTSEDSAVYFCARGEYFFFDYWGQGTTLTVSS VL: DIVMTQSHKFMSTSVGDRVSITCKASQHVSNGVAWYQHKPGQSPKLLIYSASYRYTGVPDRFTGTGSGTDFTFTISSVQAEDLAVYYCQQHYNTPHTFGGGTKLEIK | 9.44
TIGIT-CHI-002 (antibody, V domains shown, human-mouse chimeric antibody) VH: EVQLQESGPGLAKPSQTLSLACSVTGYSITSDSWNWIRKFPGNKLEYMGYISYSGNTYYNPSLKSRISITRDTSKNQFYLQLNSVTTEDTATYYCARLDFSNYGGAVDYWGQGTSVTVSS VL: DIVMTQSHTFMSTSVGDRVSITCKASQNVRTAVAWYQQKPGQSPKLMIYSASYRYTGVPDRFTGSGSGTDFTFTISSVQAEDLAVYYCQQYYTTPWTFGGGAKLEIQ | 9.43
TIGIT-CHI-070 (antibody, V domains shown, human-mouse chimeric antibody) VH: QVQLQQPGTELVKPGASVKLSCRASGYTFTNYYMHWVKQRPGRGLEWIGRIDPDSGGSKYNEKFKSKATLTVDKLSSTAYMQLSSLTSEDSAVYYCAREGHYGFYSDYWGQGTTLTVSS VL: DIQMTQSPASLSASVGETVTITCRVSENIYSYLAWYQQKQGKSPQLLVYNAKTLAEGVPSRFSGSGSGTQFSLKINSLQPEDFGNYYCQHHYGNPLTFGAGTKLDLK | 9.24

Continue with the next binder.
Quick one: pIC50 for TIGIT-CHI-006 (antibody, V domains shown, human-mouse chimeric antibody) VH: EVQLQESGPGLAKPSQTPSLTCSVTGYSMTSDYWNWIRKFPGNKLEYMGYISYSGRTYYNPSLKSRISITRDTSKNQFYLQLNSVTTEDTATYYCARGDYSNYGGAMYDWGQGTSVTVSS VL: DIVMTQSHKFMSTSVGDRVSITCRASQGVSTTIAWYQQKPGQSPKLLIYSASYRYTGVPDRFTGSGSGTDFTFTISGVQAEDLAVYYCQQYYSSPFTFGGGTKLEIK ?
9.24

FYI, the data here is from patent US20240343803A1.
